TESTED_SYSTEM: T1, human LAP-TGFB1 Fc fusion (human)
T1 construct: also called human LAP-TGFβ1-Fc; human LAP-TGFβ-Fc isoform 1
T1 sequence (chain, as listed by the source limits assumed): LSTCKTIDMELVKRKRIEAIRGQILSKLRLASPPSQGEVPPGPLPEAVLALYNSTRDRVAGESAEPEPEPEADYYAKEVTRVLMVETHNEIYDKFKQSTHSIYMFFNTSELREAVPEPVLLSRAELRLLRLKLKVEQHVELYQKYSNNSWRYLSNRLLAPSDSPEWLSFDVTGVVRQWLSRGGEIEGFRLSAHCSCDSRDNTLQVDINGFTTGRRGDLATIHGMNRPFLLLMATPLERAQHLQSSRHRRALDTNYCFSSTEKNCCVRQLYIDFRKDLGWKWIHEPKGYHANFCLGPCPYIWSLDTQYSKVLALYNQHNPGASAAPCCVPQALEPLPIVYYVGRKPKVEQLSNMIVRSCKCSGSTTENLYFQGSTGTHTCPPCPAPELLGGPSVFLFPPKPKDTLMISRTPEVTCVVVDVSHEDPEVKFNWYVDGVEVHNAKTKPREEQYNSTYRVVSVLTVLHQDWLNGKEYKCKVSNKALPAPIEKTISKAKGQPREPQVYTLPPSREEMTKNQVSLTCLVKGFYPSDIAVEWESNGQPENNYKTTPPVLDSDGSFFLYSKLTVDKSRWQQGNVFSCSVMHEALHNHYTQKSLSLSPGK
MEASUREMENT_NOTES: SPR pH 6.0, antigen-Fc captured, Fab analyte
Reported koff values follow for various binders
Report as a plain number; the unit s⁻¹ is understood.

Recorded results for 2 binders are shown here.
60BLH (Fab, V domains shown, also called 12BLM Fab) VH: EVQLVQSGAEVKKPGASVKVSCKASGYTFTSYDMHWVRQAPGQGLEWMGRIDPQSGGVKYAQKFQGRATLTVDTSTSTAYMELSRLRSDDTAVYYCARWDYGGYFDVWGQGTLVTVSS VL: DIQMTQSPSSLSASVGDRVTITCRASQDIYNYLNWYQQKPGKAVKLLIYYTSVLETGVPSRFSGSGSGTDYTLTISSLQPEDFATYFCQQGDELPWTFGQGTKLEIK: 0.000481
56BLH (Fab, V domains shown, also called 08BLM Fab) VH: EVQLVQSGAEVKKPGASVKVSCKASGYTFTSYDMHWVRQAPGQGLEWMGRIDPQSGGTKYAQKFQGRATLTVDTSTSTAYMELSRLRSDDTAVYYCARWDYGGQFDVWGQGTLVTVSS VL: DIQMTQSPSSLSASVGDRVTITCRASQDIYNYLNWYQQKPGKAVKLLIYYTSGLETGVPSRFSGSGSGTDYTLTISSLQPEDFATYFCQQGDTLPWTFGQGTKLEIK: 5.56e-05

koff measured on 54BLH (Fab, V domains shown, also called 06BLM Fab) VH: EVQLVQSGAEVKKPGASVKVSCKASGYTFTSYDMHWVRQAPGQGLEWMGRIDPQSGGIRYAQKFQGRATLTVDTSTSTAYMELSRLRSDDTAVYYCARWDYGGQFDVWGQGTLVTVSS VL: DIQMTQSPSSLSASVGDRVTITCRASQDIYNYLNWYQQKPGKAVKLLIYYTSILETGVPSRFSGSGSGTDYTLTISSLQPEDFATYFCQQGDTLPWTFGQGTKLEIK = 4.73e-05

// sample 68BLH (Fab, V domains shown, also called 20BLM Fab) VH: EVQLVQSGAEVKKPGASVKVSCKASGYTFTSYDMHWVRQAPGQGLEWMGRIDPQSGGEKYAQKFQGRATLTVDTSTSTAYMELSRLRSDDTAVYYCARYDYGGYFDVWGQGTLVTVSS VL: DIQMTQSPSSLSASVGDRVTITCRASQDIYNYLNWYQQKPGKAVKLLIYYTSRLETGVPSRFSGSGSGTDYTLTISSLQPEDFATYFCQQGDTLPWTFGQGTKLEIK , its koff was 0.00454

Record 55BLH (Fab, V domains shown, also called 07BLM Fab) VH: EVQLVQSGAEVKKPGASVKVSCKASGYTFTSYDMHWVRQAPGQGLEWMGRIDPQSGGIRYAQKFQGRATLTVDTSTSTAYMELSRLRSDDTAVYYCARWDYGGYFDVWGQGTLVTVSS VL: DIQMTQSPSSLSASVGDRVTITCRASQDIYSYLNWYQQKPGKAVKLLIYYTSNLETGVPSRFSGSGSGTDYTLTISSLQPEDFATYFCQQGDTLPWTFGQGTKLEIK . Reported koff: 0.000757
